Values compiled from patent US11464802B2.

System: primary human total T-cells
Test Summary: Primary human total T-cell activation: IL-2 secretion, Biological Example 13
Format: cell-based
Condition Info: anti-CD3/anti-CD28 co-stimulation, inhibitor 1 μM, 48 hours, fold change over baseline, Table 13-1, read-out: IL-2 secretion CD3/CD28 1 μM
Item-by-item account of fold induction at 1 µM

Reference set, count: 3
Cc1cc(C(=O)Nc2cccc(C3(Cc4nncn4C)COC3)c2)nc(C2CC2)n1 11 to 15
C[C@@H](c1cc2c(c(C(F)(F)F)c1)CN(c1cccc(C3(Cc4nncn4C)COC3)c1)C2=O)N1CC[C@H](F)C1 > 15
C[C@H](c1cc2c(c(C(F)(F)F)c1)CN(c1cccc(C3(Cc4nncn4C)COC3)c1)C2=O)N1CC[C@H](F)C1 11 to 15

Consider the molecule shown here: CCNc1cc(C2(Cc3nncn3C)COC2)cc(N2Cc3c(cc(CN4CCC[C@H](C)C4)cc3C(F)(F)F)C2=O)n1 What is its recorded fold induction at 1 µM?
< 10

Consider the molecule shown here: C[C@@H](c1cc2c(c(C(F)(F)F)c1)CN(c1cccc(C3(Cc4nncn4C)COC3)c1)C2=O)N1CCC(F)CC1 What is its recorded fold induction at 1 µM?
> 15

====

Tested System: Cbl-b (Homo sapiens (Human), UniProt Q13191)
Sequence (Q13191 36-427): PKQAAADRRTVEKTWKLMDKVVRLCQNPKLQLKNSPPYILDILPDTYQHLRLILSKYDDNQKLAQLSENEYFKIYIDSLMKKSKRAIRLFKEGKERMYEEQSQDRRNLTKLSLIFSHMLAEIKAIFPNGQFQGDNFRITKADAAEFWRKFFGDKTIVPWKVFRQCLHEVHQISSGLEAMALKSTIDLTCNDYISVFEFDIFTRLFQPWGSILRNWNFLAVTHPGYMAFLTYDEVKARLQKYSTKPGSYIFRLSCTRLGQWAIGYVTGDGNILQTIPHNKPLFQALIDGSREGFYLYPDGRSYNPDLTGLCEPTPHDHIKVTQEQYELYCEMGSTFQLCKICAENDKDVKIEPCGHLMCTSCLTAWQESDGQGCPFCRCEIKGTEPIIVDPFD
Test Summary: Cbl-b displacement assay (Cbl-b inhibition assay), Biological Example 12
Format: binding
Condition Info: 0.125 nM Cbl-b final concentration (Low); Table 12-1; read-out: Cbl-b IC50 (Low)
pIC50: −log10 of the molar value.
Item-by-item account of pIC50

Reference set, count: 5
C[C@@H]1CN(Cc2cc3c(c(C4CC4)n2)CN(c2cccc(C4(Cc5nncn5C)COC4)c2)C3=O)CCC1(F)F 8.30 to 9.00
C[C@@H](c1cc2c(c(C(F)(F)F)c1)CN(c1cccc(C3(Cc4nncn4C)COC3)c1)C2=O)N1CCC(F)CC1 8.30 to 9.00
CCNc1cc(C2(Cc3nncn3C)COC2)cc(N2Cc3c(cc(CN4CCC[C@H](C)C4)cc3C(F)(F)F)C2=O)n1 > 9.00
C[C@@H](c1cc2c(c(C(F)(F)F)c1)CN(c1cccc(C3([C@@H](F)c4nncn4C)COC3)c1)C2=O)N1CCC2(CC2)C1 8.30 to 9.00
CCOc1cc(C2(Cc3nncn3C)COC2)cc(N2Cc3c(cc(CN4CCC[C@H](C)C4)cc3C(F)(F)F)C2=O)n1 > 9.00

Now, please, on to the next compound.
Reported pIC50 for Cbl-b (Homo sapiens (Human), UniProt Q13191), given Cc1cc(C(=O)Nc2cccc(C3(Cc4nncn4C)COC3)c2)nc(C2CC2)n1 ?
< 8.30

====

Tested on: primary human total T-cells
Test Summary: Primary human total T-cell activation: CD25 surface staining, Biological Example 9
Type: cell-based
Condition Info: anti-CD3 alone, inhibitor 3 μM, 48 hours, fold change over baseline, Table 9-1
Item-by-item account of fold induction at 3 µM

Reference set, count: 4
C[C@@H]1C[C@H](C)CN(Cc2cc3c(c(C(F)(F)F)c2)CN(c2cccc(C4(Cc5nncn5C)COC4)c2)C3=O)C1 1.05 to 1.14
Cn1cnnc1CC1(c2cccc(N3Cc4c(cc(CN5CCC6(CC6)C5)cc4C(F)(F)F)C3=O)c2)COC1 > 1.14
CCOc1cc(C2(Cc3nncn3C)COC2)cc(N2Cc3c(cc(CN4CCC[C@H](C)C4)cc3C(F)(F)F)C2=O)n1 > 1.14
C[C@@H]1CN(Cc2cc(C(=O)Nc3cccc(C4(Cc5nncn5C)COC4)c3)nc(C3CC3)c2)CCC1(F)F > 1.14

Now, please, on to the next molecule.
Consider the molecule shown here: C[C@H]1CCCN(Cc2cc3c(c(C(F)(F)F)c2)CN(c2cccc(C4(Cc5nncn5C)COC4)c2)C3=O)C1 What is its recorded fold induction at 3 µM?
> 1.14

====

Tested System: UniProtKB Q13191
Test Summary: Cbl-b displacement assay (Cbl-b inhibition assay), TR-FRET probe displacement, Biological Example 1
Type: binding
Condition Info: Cbl-b concentration (High or Low) not given; read-out: IC50 values in the Cbl-b inhibition assay of Biological Example 1
Item-by-item account of IC50

Reference set, count: 2
Molecule	Property Measured	Result
CC1CN(Cc2cc3c(c(C(F)(F)F)c2)CN(c2cccc(C4([C@@H](F)c5nncn5C)CC4)c2)C3=O)CCC1(F)F (stereo partly drawn) [Compound 26]	IC50	1 to 5 nM
C[C@H]1C[C@H](CO)CN(Cc2cc3c(c(C(F)(F)F)c2)CN(c2cccc(C4(Cc5nncn5C)COC4)c2)C3=O)C1 (relative stereo) [Compound 22]	IC50	< 1 nM

Consider the molecule shown here: C[C@@H]1CN(Cc2cc3c(c(C(F)(F)F)c2)CN(c2cccc(C4(Cc5nncn5C(F)F)COC4)c2)C3=O)CCC1(F)F [Compound 31] What is its recorded IC50?
1 to 5 nM

Consider the molecule shown here: C[C@H]1CCCN(Cc2cc3c(c(C(F)(F)F)c2)CN(c2cccc(C4(Cc5nncn5C(F)F)COC4)c2)C3=O)C1 [Compound 36] What is its recorded IC50?
< 1 nM

Consider the molecule shown here: C[C@@H]1CN(Cc2cc(C(=O)Nc3cccc(C4(Cc5nncn5C)COC4)c3)nc(C3CC3)c2)CCC1(F)F [Compound 32] What is its recorded IC50?
< 1 nM

Consider the molecule shown here: C[C@@H]1CN(Cc2cc3c(c(C(F)(F)F)c2)CN(c2cc(C4(Cc5nncn5C)COC4)cc(NC4COC4)n2)C3=O)CCC1(F)F [Compound 29] What is its recorded IC50?
5.1 to 100 nM

====

Test system: primary human total T-cells
Test Summary: Primary human total T-cell activation: IL-2 secretion, Biological Example 13
Format: cell-based
Condition Info: anti-CD3/anti-CD28 co-stimulation, inhibitor 1 μM, 48 hours, fold change over baseline, Table 13-1, read-out: IL-2 secretion CD3/CD28 1 μM
Item-by-item account of fold induction at 1 µM

Consider the compound shown here: CCOc1cc(C2(Cc3nncn3C)COC2)cc(N2Cc3c(cc(CN4CCC(F)(F)[C@H](C)C4)cc3C(F)(F)F)C2=O)n1 [Compound 28] What is its recorded fold induction at 1 µM?
11 to 15

====

Tested System: Cbl-b (Homo sapiens (Human), UniProt Q13191)
Test Summary: Cbl-b displacement assay (Cbl-b inhibition assay), Biological Example 12
Type: binding
Condition Info: 0.5 nM Cbl-b final concentration (High); Table 12-1; read-out: Cbl-b IC50 (High)
pIC50: −log10 of the molar value.
Property Measured: pIC50

Compound	pIC50
C[C@@H]1C[C@H](C)CN(Cc2cc3c(c(C(F)(F)F)c2)CN(c2cccc(C4(Cc5nncn5C)COC4)c2)C3=O)C1 [Compound 2]	> 9.00
C[C@@H]1CN(Cc2cc(C(=O)Nc3cccc(C4(Cc5nncn5C)COC4)c3)nc(C3CC3)c2)CCC1(F)F [Compound 32]	> 9.00
C[C@H]1CCCN(Cc2cc3c(c(C(F)(F)F)c2)CN(c2cccc(C4(Cc5nncn5C)COC4)c2)C3=O)C1 [Compound 1]	> 9.00

Consider the compound shown here: CCOc1cc(C2(Cc3nncn3C)COC2)cc(N2Cc3c(cc(CN4CCC(F)(F)[C@H](C)C4)cc3C(F)(F)F)C2=O)n1 [Compound 28] What is its recorded pIC50?
8.30 to 9.00

====

Item-by-item account of IC50
Tested System: Cbl-b (Homo sapiens (Human))
Test Summary: Cbl-b displacement assay (Cbl-b inhibition assay), TR-FRET probe displacement, Biological Example 1
Type: binding
Condition Info: 0.5 nM Cbl-b final concentration (High); read-out: Cbl-b activity IC50 (High)

Reference set, count: 2
Compound	IC50
C[C@H]1CN(Cc2cc(C(=O)Nc3cccc(C4(Cc5nncn5C)COC4)c3)nc(C3CC3)c2)CCC1(F)F	1 to 5 nM
C[C@@H]1CN(Cc2cc3c(c(C(F)(F)F)c2)CN(c2cccc(C4(Cc5nncn5C)COC4)c2)C3=O)CCC1(F)F	5.1 to 100 nM

Consider the compound shown here: C[C@@H]1CCCN(Cc2cc3c(c(C(F)(F)F)c2)CN(c2cccc(C4(Cc5nncn5C)COC4)c2)C3=O)C1 What is its recorded IC50?
1 to 5 nM

Consider the compound shown here: CCNc1cc(C2(Cc3nncn3C)COC2)cc(N2Cc3c(cc(CN4CCC(F)(F)[C@H](C)C4)cc3C(F)(F)F)C2=O)n1 What is its recorded IC50?
5.1 to 100 nM

====

Item-by-item account of IC50
Tested System: Cbl-b (Homo sapiens (Human), UniProt Q13191)
Test Summary: Cbl-b displacement assay (Cbl-b inhibition assay), TR-FRET probe displacement, Biological Example 1
Assay type: binding
Condition Info: 0.125 nM Cbl-b final concentration (Low); read-out: Cbl-b activity IC50 (Low)

Compound	Tested System	IC50
Cn1cnnc1CC1(c2cccc(N3Cc4c(cc(CN5CCCC(CC#N)C5)cc4C(F)(F)F)C3=O)c2)COC1 (centres unmarked)	Cbl-b (Homo sapiens (Human), UniProt Q13191)	1 to 5 nM
Cn1cnnc1CC1(c2cccc(N3Cc4c(cc(CN5CCCC(C)(F)C5)cc4C(F)(F)F)C3=O)c2)COC1 (stereo in doubt) [Compound 5]	Cbl-b (Homo sapiens (Human), UniProt Q13191)	5.1 to 100 nM
C[C@@H]1CN(Cc2cc3c(c(C4CC4)n2)CN(c2cccc(C4(Cc5nncn5C(F)F)COC4)c2)C3=O)CCC1(F)F	Cbl-b (Homo sapiens (Human), UniProt Q13191)	1 to 5 nM
Cn1cnnc1CC1(c2cccc(N3Cc4c(cc(CN5C[C@@H](C(F)(F)F)C[C@H](C(F)(F)F)C5)cc4C(F)(F)F)C3=O)c2)COC1 (relative stereo)	Cbl-b (Homo sapiens (Human), UniProt Q13191)	1 to 5 nM
C[C@H]1CCCN(Cc2cc3c(c(C(F)(F)F)c2)CN(c2cccc(C4(Cc5nncn5C)COC4)c2)C3=O)[C@H]1C (relative stereo)	Cbl-b (Homo sapiens (Human), UniProt Q13191)	1 to 5 nM
C[C@H]1CCCN(Cc2cc3c(c(C4CC4)n2)CN(c2cccc(C4(Cc5nncn5C(F)F)COC4)c2)C3=O)C1	Cbl-b (Homo sapiens (Human), UniProt Q13191)	1 to 5 nM

Consider the compound shown here: C[C@@H]1CN(Cc2cc3c(c(C4CC4)n2)CN(c2cccc(C4(Cc5nncn5C)COC4)c2)C3=O)CCC1(F)F What is its recorded IC50?
1 to 5 nM

Consider the compound shown here: C[C@@H]1CN([C@@H](C)c2cc3c(c(C4CC4)n2)CN(c2cccc(C4(Cc5nncn5C)COC4)c2)C3=O)CCC1(F)F What is its recorded IC50?
< 1 nM
